# Tested on: mouse melan-a cells
# MEASUREMENT_DESCRIPTION: Melanocyte proliferant activity of piperine derivatives, SRB assay, 4 days, 10% FBS
# Type: cell-based
# TEST_SETTINGS: Mus musculus, Melan-a, 96 h, 10 μM; read-out: growth of melan-a cells as % of control, dose experiment
Would you kindly list activity at 10 µM for each of these molecules?
Just the number in %, nothing appended.

Ask: # get_value(readout= activity at 10 µM, system= mouse melan-a cells) for `COC(=O)/C=C/C=C/c1ccc2c(c1)OCO2`
Result: 147

Ask: Queued: `CCCCNC(=O)/C=C/C=C/c1ccc2c(c1)OCO2`
Result: 264

Ask: Check `CC(C)CNC(=O)/C=C/C=C/c1ccc2c(c1)OCO2` too.
Result: 188

Ask: Note, next up: `CCCCCCNC(=O)/C=C/C=C/c1ccc2c(c1)OCO2`
Result: 188

###

# Test system: mouse melan-a cells
# MEASUREMENT_DESCRIPTION: Melanocyte proliferant activity of piperine derivatives, SRB assay, 4 days, 10% FBS
# Type: cell-based
# TEST_SETTINGS: Mus musculus, Melan-a, 96 h, single concentration (10 μM); melan-a; ± SEM; read-out: Percentage cell growth (Repeated experiments)
Exercise: state measured activity at 10 µM for each of the molecules provided.
API: value field is a number in %; no unit string.

Ask: Entry `CNC(=O)/C=C/C=C/c1ccc2c(c1)OCO2` has what activity at 10 µM?
Result: 170

Ask: Quick one: `CC(C)OC(=O)/C=C/C=C/c1ccc2c(c1)OCO2`
Result: 224

Ask: Then what about the molecule `COc1ccccc1/C=C/C(=O)N1CCCCC1` ?
Result: 105

Ask: Same question for `CCOC(=O)/C=C/C=C/c1ccc2c(c1)OCO2` please.
Result: 29

Ask: Next: `CC(C)NC(=O)/C=C/C=C/c1ccc2c(c1)OCO2`
Result: 224

###

# System: mouse melan-a cells
# MEASUREMENT_DESCRIPTION: Melanocyte proliferant activity of piperine derivatives, SRB assay, 4 days, 10% FBS
# Assay type: cell-based
# TEST_SETTINGS: Mus musculus, Melan-a, 96 h, single concentration (10 μM); melan-a; ± SEM; read-out: Percentage cell growth (Repeated experiments)
PROPERTY_LABEL: activity at 10 µM (%)
State the answer as a number, implicitly in %.

Ask: Form field - read-out: activity at 10 µM; system: mouse melan-a cells; submitted item: `CCCOC(=O)/C=C/C=C/c1ccc2c(c1)OCO2`
Result: 166

Ask: Next: `O=C(/C=C/C=C/c1ccc2c(c1)OCO2)N1CCCC1`
Result: 183

Ask: Repeat for the following compound: `O=C(CCc1ccc2c(c1)OCO2)N1CCCCC1`
Result: 104

Ask: Then what about the compound `CCCCNC(=O)/C=C/C=C/c1ccc2c(c1)OCO2` ?
Result: 264
